system_name: human CD33 L229A (human, UniProt P20138 18-364)
Sequence (P20138 18-364 L229A limits assumed): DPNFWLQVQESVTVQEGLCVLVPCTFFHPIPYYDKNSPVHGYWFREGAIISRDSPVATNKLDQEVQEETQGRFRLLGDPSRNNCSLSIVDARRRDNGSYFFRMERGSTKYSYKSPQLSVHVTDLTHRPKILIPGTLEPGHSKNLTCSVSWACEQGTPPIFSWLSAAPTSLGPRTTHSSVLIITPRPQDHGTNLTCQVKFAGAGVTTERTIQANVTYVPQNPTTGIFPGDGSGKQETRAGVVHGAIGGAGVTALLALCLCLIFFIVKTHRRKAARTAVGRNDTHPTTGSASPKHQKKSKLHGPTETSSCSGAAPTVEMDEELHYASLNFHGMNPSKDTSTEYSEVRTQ
assay_protocol: alanine scan, flow cytometry, HEK293-T;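 further: antibody binding to each alanine-substituted CD33 mutant expressed transiently in HEK293-T, read as fluorescence minus background, mean of duplicates, relative to wild-type CD33 set as 100%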
property: Mean % WT Binding (%)
All answers are understood in %, so give the number only.

Sure, the documented Mean % WT Binding for Refmab #1 (antibody, V domains shown, In the alanine scan antibodies were used as IgG or Fab; also called hP67.6) VH: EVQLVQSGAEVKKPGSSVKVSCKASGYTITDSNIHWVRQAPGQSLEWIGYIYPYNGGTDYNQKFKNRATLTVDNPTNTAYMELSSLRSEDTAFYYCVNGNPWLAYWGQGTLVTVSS VL: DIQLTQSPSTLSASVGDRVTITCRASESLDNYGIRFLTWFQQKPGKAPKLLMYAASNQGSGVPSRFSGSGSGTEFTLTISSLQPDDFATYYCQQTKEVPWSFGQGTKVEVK is 93.1
